All values here come from ChEMBL document CHEMBL1125471.

Target: Sodium-dependent dopamine transporter (Rattus norvegicus)
Sequence (P23977 whole entry): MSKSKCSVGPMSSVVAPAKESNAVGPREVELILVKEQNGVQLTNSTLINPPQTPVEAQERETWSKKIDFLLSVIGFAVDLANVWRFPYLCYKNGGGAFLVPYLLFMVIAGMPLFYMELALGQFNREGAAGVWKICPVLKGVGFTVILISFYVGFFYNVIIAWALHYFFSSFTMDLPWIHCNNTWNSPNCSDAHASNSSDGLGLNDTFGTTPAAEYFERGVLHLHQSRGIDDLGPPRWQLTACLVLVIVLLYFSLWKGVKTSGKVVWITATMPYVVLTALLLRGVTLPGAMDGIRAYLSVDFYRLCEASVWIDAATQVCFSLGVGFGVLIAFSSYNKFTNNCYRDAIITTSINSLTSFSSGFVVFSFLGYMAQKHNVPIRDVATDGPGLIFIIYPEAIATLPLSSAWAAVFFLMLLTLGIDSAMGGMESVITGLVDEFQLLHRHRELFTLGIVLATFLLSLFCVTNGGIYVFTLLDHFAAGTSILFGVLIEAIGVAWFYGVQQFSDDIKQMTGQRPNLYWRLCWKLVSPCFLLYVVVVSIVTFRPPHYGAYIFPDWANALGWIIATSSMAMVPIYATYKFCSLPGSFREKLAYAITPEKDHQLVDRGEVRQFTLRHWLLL
Test: Inhibition of [3H]WIN-35428l binding to Dopamine transporter
pIC50: −log10 of the molar value.
Classification by pIC50 follows these ranges: bottom end (below 8), midrange (8 to below 9), top end (9 or more)

compound-structure	group
Cc1ccc([C@H]2C[C@H]3CCC([C@H]2C(=O)Oc2ccccc2)N3C)cc1	midrange
CCOC(=O)[C@@H]1C2CC[C@H](C[C@@H]1OC(=O)c1ccccc1)N2C	bottom end
CN1C2CC[C@@H]1C[C@H](c1ccc(Cl)cc1)[C@@H]2C(=O)Oc1ccccc1	midrange
CN1C2CC[C@@H]1C[C@H](OC(=O)c1ccccc1)[C@@H]2C(=O)Oc1ccccc1	bottom end
Cc1ccc([C@H]2C[C@H]3CCC([C@H]2C(=O)OC(C)C)N3C)cc1	midrange
CC(C)OC(=O)[C@@H]1C2CC[C@H](C[C@@H]1c1ccc(I)cc1)N2C	top end

----------
Collected pIC50 values appear next to each entry.
Molecular target: Norepinephrine transporter (Rattus norvegicus)
Sequence (Q9WTR4 whole entry): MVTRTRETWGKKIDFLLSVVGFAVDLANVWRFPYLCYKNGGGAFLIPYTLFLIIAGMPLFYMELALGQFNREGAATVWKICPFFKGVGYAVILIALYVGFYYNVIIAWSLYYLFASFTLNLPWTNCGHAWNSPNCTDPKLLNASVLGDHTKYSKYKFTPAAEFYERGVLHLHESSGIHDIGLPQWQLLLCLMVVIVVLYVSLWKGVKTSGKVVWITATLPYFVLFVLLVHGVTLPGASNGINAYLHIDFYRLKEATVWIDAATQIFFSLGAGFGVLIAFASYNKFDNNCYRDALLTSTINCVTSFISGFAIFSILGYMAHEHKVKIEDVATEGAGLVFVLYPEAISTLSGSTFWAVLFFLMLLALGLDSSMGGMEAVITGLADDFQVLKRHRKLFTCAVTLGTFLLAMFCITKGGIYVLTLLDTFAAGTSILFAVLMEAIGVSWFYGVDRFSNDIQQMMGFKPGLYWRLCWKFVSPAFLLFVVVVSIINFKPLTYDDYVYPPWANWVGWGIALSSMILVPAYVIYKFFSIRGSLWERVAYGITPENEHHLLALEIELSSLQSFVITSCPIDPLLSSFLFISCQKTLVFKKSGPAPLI
Experiment: Inhibition of [3H]mazindol binding to Norepinephrine transporter
pIC50: −log10 of the molar value.

compound-structure	target-entity	pIC50
COC(=O)[C@@H]1C2CC[C@H](C[C@@H]1c1ccc(I)cc1)N2C	Norepinephrine transporter (Rattus norvegicus)	7.46
COC(=O)[C@@H]1C2CC[C@H](C[C@@H]1c1ccccc1)N2C	Norepinephrine transporter (Rattus norvegicus)	5.68
CN1C2CC[C@@H]1C[C@H](OC(=O)c1ccccc1)[C@@H]2C(=O)Oc1ccccc1	Norepinephrine transporter (Rattus norvegicus)	4.43
CCOC(=O)[C@@H]1C2CC[C@H](C[C@@H]1OC(=O)c1ccccc1)N2C	Norepinephrine transporter (Rattus norvegicus)	4.57
Cc1ccc([C@H]2C[C@H]3CCC([C@H]2C(=O)OC(C)C)N3C)cc1	Norepinephrine transporter (Rattus norvegicus)	5.37
CN1C2CC[C@@H]1C[C@H](c1ccc(I)cc1)[C@@H]2C(=O)Oc1ccccc1	Norepinephrine transporter (Rattus norvegicus)	4.74
CC(C)OC(=O)[C@@H]1C2CC[C@H](C[C@@H]1OC(=O)c1ccccc1)N2C	Norepinephrine transporter (Rattus norvegicus)	4.63
COC(=O)[C@H]1[C@@H](c2ccc(F)cc2)C[C@H]2CC[C@H]1N2C	Norepinephrine transporter (Rattus norvegicus)	5.91
CC(C)OC(=O)[C@@H]1C2CC[C@H](C[C@@H]1c1ccc(I)cc1)N2C	Norepinephrine transporter (Rattus norvegicus)	6.06
Cc1ccc([C@H]2C[C@H]3CCC([C@H]2C(=O)Oc2ccccc2)N3C)cc1	Norepinephrine transporter (Rattus norvegicus)	4.96
CN1C2CC[C@@H]1C[C@H](c1ccc(Cl)cc1)[C@@H]2C(=O)Oc1ccccc1	Norepinephrine transporter (Rattus norvegicus)	5.34
CC(C)OC(=O)[C@@H]1C2CC[C@H](C[C@@H]1c1ccc(Cl)cc1)N2C	Norepinephrine transporter (Rattus norvegicus)	5.67

----------
Target: Sodium-dependent serotonin transporter (Rattus norvegicus)
Sequence (P31652 whole entry): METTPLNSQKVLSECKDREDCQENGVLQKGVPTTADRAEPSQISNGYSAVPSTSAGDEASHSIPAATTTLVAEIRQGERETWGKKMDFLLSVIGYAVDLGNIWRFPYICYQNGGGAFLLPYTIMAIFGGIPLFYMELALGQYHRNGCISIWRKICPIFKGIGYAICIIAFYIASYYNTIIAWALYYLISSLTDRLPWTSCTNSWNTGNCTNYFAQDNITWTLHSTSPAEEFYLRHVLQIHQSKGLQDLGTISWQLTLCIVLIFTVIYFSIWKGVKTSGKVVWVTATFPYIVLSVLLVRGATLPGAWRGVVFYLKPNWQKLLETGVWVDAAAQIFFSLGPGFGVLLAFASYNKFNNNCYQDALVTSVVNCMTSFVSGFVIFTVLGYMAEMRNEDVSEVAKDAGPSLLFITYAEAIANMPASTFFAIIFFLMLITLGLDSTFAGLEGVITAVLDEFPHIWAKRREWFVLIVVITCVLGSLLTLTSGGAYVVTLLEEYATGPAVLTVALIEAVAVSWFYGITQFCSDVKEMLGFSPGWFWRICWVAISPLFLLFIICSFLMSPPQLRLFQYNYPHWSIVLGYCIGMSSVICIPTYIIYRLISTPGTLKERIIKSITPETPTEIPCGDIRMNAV
Assay: Ratio of IC50(5-HT) to the IC50(DA)
Strictly below 500 in Ratio: t. Otherwise: f.

compound-structure	group
CN1C2CC[C@@H]1C[C@H](c1ccc(Cl)cc1)[C@@H]2C(=O)Oc1ccccc1	f
Cc1ccc([C@H]2C[C@H]3CCC([C@H]2C(=O)Oc2ccccc2)N3C)cc1	f
Cc1ccc([C@H]2C[C@H]3CCC([C@H]2C(=O)OC(C)C)N3C)cc1	f
CC(C)OC(=O)[C@@H]1C2CC[C@H](C[C@@H]1c1ccc(I)cc1)N2C	f
CCOC(=O)[C@@H]1C2CC[C@H](C[C@@H]1OC(=O)c1ccccc1)N2C	t
CC(C)OC(=O)[C@@H]1C2CC[C@H](C[C@@H]1OC(=O)c1ccccc1)N2C	t
CN1C2CC[C@@H]1C[C@H](c1ccc(I)cc1)[C@@H]2C(=O)Oc1ccccc1	t
CC(C)OC(=O)[C@@H]1C2CC[C@H](C[C@@H]1c1ccc(Cl)cc1)N2C	f
COC(=O)[C@@H]1C2CC[C@H](C[C@@H]1c1ccc(I)cc1)N2C	t

----------
Target: Sodium-dependent dopamine transporter (Rattus norvegicus)
Experiment: Compound was evaluated for the inhibition of [3H]WIN-35428l binding to dopamine transporter

compound-structure	IC50 (nM)
CCCOC(=O)[C@@H]1C2CC[C@H](C[C@@H]1OC(=O)c1ccccc1)N2C	191

----------
Biological target: UniProt:P31652
Strictly below 6000 nM in IC50: t. Otherwise: f.

compound-structure	group
CN1C2CC[C@@H]1C[C@H](OC(=O)c1ccccc1)[C@@H]2C(=O)OCCCc1ccccc1	t
Cc1ccc([C@H]2C[C@H]3CCC([C@H]2C(=O)OC(C)C)N3C)cc1	f
COC(=O)[C@@H]1C2CC[C@H](C[C@@H]1c1ccc(I)cc1)N2C	t
CC(C)OC(=O)[C@@H]1C2CC[C@H](C[C@@H]1c1ccc(Cl)cc1)N2C	t
Cc1ccc([C@H]2C[C@H]3CCC([C@H]2C(=O)Oc2ccccc2)N3C)cc1	f

----------
Quick record: log10 IC50, Sodium-dependent serotonin transporter (Rattus norvegicus, UniProt P31652).
parameter-measured: log10 IC50 (log10 of the value in nM)

compound-structure	log10 IC50
CCCOC(=O)[C@@H]1C2CC[C@H](C[C@@H]1OC(=O)c1ccccc1)N2C	3.62
CN1C2CC[C@@H]1C[C@H](c1ccc(Cl)cc1)[C@@H]2C(=O)Oc1ccccc1	3.37
COC(=O)[C@H]1[C@@H](c2ccc(F)cc2)C[C@H]2CC[C@H]1N2C	2.88
CC(C)OC(=O)[C@@H]1C2CC[C@H](C[C@@H]1c1ccc(I)cc1)N2C	2.49
CN1C2CC[C@@H]1C[C@H](OC(=O)c1ccccc1)[C@@H]2C(=O)Oc1ccccc1	4.76

----------
Target: Sodium-dependent dopamine transporter (Rattus norvegicus)
Test: Inhibition of [3H]WIN-35428l binding to Dopamine transporter
pIC50: −log10 of the molar value.
Collected pIC50 values appear next to each entry.

compound-structure	pIC50
CC(C)OC(=O)[C@@H]1C2CC[C@H](C[C@@H]1c1ccc(Cl)cc1)N2C	8.85
CN1C2CC[C@@H]1C[C@H](c1ccc(I)cc1)[C@@H]2C(=O)Oc1ccccc1	8.82
COC(=O)[C@@H]1C2CC[C@H](C[C@@H]1c1ccc(C)cc1)N2C	8.77
COC(=O)[C@@H]1C2CC[C@H](C[C@@H]1c1ccc(I)cc1)N2C	8.90
